Target: T1, Atg8 K26P, 15N isotope-labeled (S. cerevisiae, UniProt P38182 1-117, K26P, 15N isotope-labeled)
T1 construct: Atg8, S. cerevisiae, amino acids 1-117, K26P mutant used for stability in NMR; Cloned in pGEX-4-T1; GST cut off with thrombin; also called [15N]Atg8; K26P mutant of Atg8; source: E. coli Rosetta pLysS DE3 in M9 minimal medium with [15N]ammonium chloride, purified (glutathione beads, thrombin, SEC)
T1 sequence (looked up): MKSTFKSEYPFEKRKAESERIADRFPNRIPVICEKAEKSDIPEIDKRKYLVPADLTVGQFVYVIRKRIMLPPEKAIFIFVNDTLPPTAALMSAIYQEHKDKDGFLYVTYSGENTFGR
Test: NMR titration; unlabeled Atg19 CTD or peptide titrated into 15N-labeled Atg8 K26P; 2D 15N HSQC at 25 °C; Atg8 135-500 μM, Atg19 C terminus 15-1000 μM; Kd estimated as the median of one-site saturation fits of CSCs of four to twelve Atg8 residues
Details: both partners purified
Parameter: pKd. Scope: all listed entries.
Please note pKd is a logarithmic value: minus log10 of concentration in mol/L. Answer with that number alone.

{"Binder": "Atg19 CTD F376A, F379A, W412A (amino acids 365-415) (domain or fragment, S. cerevisiae, UniProt P35193 365-415, looked up, Atg19, S. cerevisiae, C-terminal domain, amino acids 365-415, F376A, F379A, W412A; also called FFWA; triple mutant C terminus; source: E. coli Rosetta pLysS DE3, purified (glutathione beads, thrombin, SEC)) SAESLQASQEPAYSAQIDTLPELDDSSIISTSISLSYDGDDNEKALTAEEL", "pKd": 3.54}

Next up:
[Q] Data request, read-out pKd, for Atg19 W412A CTD (amino acids 365-415) (domain or fragment, S. cerevisiae, UniProt P35193 365-415, looked up, Atg19, S. cerevisiae, C-terminal domain, amino acids 365-415, W412A; also called WA; W412A mutant Atg19 CTD; source: E. coli Rosetta pLysS DE3, purified (glutathione beads, thrombin, SEC)) SAESLQASQEPFYSFQIDTLPELDDSSIISTSISLSYDGDDNEKALTAEEL
[A] 3.74
